From: ChEMBL document CHEMBL2413072

Test system: NCI-H522
Assay: Growth inhibition of human NCI-H522 cells by sulforhodamine B assay
Assay type: functional
Conditions: read-out: pGI50 (converted)
I'd appreciate it if you marked entries satisfied when GI50 is lower than 3 µM and not satisfied when it is not.

| molecule | assigned.category |
| --- | --- |
| C/C=C(/C)C(=O)O[C@@H]1CC(C)(C)C[C@H]2C3=CC[C@@H]4[C@@]5(C)CC[C@H](O)C(C)(C)[C@@H]5CC[C@@]4(C)[C@]3(C)CC[C@@]12C(=O)O [Reduced Lantadene A] | satisfied |
| CC(C)=CC(=O)O[C@@H]1CC(C)(C)C[C@H]2C3=CC[C@@H]4[C@@]5(C)CCC(=O)C(C)(C)[C@@H]5CC[C@@]4(C)[C@]3(C)CC[C@@]12C(=O)O | not satisfied |
| CC(C)=CC(=O)O[C@@H]1CC(C)(C)C[C@H]2C3=CC[C@@H]4[C@@]5(C)CC[C@H](O)C(C)(C)[C@@H]5CC[C@@]4(C)[C@]3(C)CC[C@@]12C(=O)O [Reduced Lantadene B] | not satisfied |
| CC1(C)C[C@@H](O)[C@]2(C(=O)O)CC[C@]3(C)C(=CC[C@@H]4[C@@]5(C)C/C(=C\C=C\c6ccccc6)C(=O)C(C)(C)[C@@H]5CC[C@]43C)[C@@H]2C1 | satisfied |
| C/C=C(/C)C(=O)O[C@@H]1CC(C)(C)C[C@H]2C3=CC[C@@H]4[C@@]5(C)CCC(=O)C(C)(C)[C@@H]5CC[C@@]4(C)[C@]3(C)CC[C@@]12C(=O)O [LANTADENE A] | not satisfied |
